# assayed.system: binding of CTLA-4 to CD80 (Homo sapiens)
# Construct: purchased BPS Biosciences
# protocol.summary: CTLA4:B7-1[Biotinylated] Inhibitor Screening Assay Kit (IC50 measurement)
# Assay type: biochemical
# test.parameters: MBP fusion protein
measurement.type: IC50 (nM)
Give bare numbers, in nM.

Exercise: Sample CMHPFLPIVSHHFCER [#19] — what was its IC50?
Key: 1360

###

# assayed.system: CTLA-4 (Homo sapiens)
# Sequence (P16410 36-223): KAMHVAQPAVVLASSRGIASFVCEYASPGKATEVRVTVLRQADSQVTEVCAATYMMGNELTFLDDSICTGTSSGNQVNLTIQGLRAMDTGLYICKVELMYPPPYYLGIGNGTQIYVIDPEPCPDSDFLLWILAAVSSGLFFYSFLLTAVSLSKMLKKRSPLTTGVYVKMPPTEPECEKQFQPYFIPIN
# protocol.summary: ELISA binding of clones after Affinity Maturation with random library (Tables 10, 11)
# test.parameters: S/N ratio of CTLA-4 binding in ELISA; clones from 4th or 5th round of Affinity Maturation from random (NNS) library
measurement.type: ELISA S/N(SA)
Answers are plain numbers.

Known ELISA S/N(SA) results, listed for orientation:
# substance, assayed.system, ELISA S/N(SA)
rows = [
    ("C4m#19-5th2w-NNS6-93 (GGCFHPFLPIQSRHFCCR; C4m#19-5th2w-NNS6-93)", "CTLA-4 (Homo sapiens)", 3.4),
    ("C4m3127-4th-NNS6-37 (GGCWHPVLPIRSIHFCGC; C4m3127-4th-NNS6-37) [Clone C4m3127-4th-NNS6-37]", "CTLA-4 (Homo sapiens)", 3.5),
    ("C4m3127-4th-NNS6-95 (GGCWHPVLPIRSGHFCSR; C4m3127-4th-NNS6-95) [Clone C4m3127-4th-NNS6-95]", "CTLA-4 (Homo sapiens)", 3.4),
]

Alright, here's another substance for you.
Exercise: Sample C4m#19-5th2w-NNS6-41 (GGCWHPVLPIRSDHFCCR; C4m#19-5th2w-NNS6-41) — what was its ELISA S/N(SA)?
Key: 3.1

###

Please provide measured ELISA S/N(SA) for the entries that follow.
# assayed.system: CTLA-4 (Homo sapiens)
# Sequence (P16410 36-223): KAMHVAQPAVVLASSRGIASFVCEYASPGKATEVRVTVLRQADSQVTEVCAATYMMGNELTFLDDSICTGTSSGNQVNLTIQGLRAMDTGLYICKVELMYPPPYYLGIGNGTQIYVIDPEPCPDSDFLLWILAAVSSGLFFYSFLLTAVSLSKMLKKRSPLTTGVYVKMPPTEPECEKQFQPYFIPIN
# protocol.summary: ELISA binding of clones after Affinity Maturation with random library (Tables 10, 11)
# test.parameters: CTLA-4 binding ELISA of clones after Affinity Maturation from random (NNS) library; signal/noise ratio; clones of 4th or 5th round
Answers are plain numbers.

# substance, ELISA S/N(SA)
records = [
    ("C4m#19-5th4w-NN6-75 (GGCWHPFLPIKSVHFCCA; C4m#19-5th4w-NN6-75)", 5.6),
    ("C4m#19-5th4w-NN6-23 (GGCRHPHLPIWSWHFCGR; C4m#19-5th4w-NN6-23)", 30.2),
    ("C4m#19-5th4w-NN6-61 (GGCPHPMLPIFSVHFCPY; C4m#19-5th4w-NN6-61)", 5.9),
]

Batch: ELISA S/N(SA) for all items listed.
1. C4m3127-4th-NNS6-30 (GGCWHPCLPILSPHFCPR; C4m3127-4th-NNS6-30) [Clone C4m3127-4th-NNS6-30]
2. C4m#19-5th4w-NN6-50 (GGCKHPVLPIWSWHFCRI; C4m#19-5th4w-NN6-50)
3. C4m#19-5th4w-NN6-45 (GGCRHPWLPIWSVHFCGV; C4m#19-5th4w-NN6-45)
4. C4m#19-5th2w-NNS6-26 (GGCLHPFLPIVSIHFCSA; C4m#19-5th2w-NNS6-26)
5. C4m#19-5th4w-NN6-1 (GGCRHPYLPIFSAHFCRS; C4m#19-5th4w-NN6-1)
6. C4m#19-5th4w-NN6-59 (GGCLHPHLPIWSLHFCPL; C4m#19-5th4w-NN6-59)
7. C4m#19-5th2w-NNS6-46 (GGCFHPFLPIFSYHFCGL; C4m#19-5th2w-NNS6-46)

Key:
1: 7.5; 2: 28.1; 3: 15.8; 4: 5.8; 5: 16.1; 6: 27.6; 7: 6.1

###

Please provide measured ELISA S/N(SA) for the entries that follow.
# assayed.system: CTLA-4 (Homo sapiens)
# Sequence (P16410 36-223): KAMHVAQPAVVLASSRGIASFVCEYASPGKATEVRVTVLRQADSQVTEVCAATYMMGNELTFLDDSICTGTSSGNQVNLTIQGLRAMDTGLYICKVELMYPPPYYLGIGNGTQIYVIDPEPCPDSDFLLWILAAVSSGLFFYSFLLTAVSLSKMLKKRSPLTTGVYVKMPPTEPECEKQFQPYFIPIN
# protocol.summary: ELISA binding of clones after Affinity Maturation with random library (Tables 10, 11)
# test.parameters: CTLA-4 binding ELISA of clones after Affinity Maturation from random (NNS) library; signal/noise ratio; clones of 4th or 5th round
# Method: After each round of Affinity Maturation, the cyclic peptide genes were recovered and subcloned into pET-Mal vector (FIG. 2) in the same manner as described above to perform base sequence analysis. For the 94 single colonies analyzed for sequence, E. coli transformants were inoculated into 100 μL of 2×YT medium containing ampicillin (final concentration 50 μg/mL), incubated at 37° C. for 3-5 hours (OD600=0.5-0.8), then added with IPTG (final concentration 0.5 mM) and incubated at 25° C. overnight. […]
Give bare numbers.

Batch: ELISA S/N(SA) for all items listed.
1. C4m#19-5th4w-NN6-5-1 (GGCWHPYLPIQSLHFCPF; C4m#19-5th4w-NN6-5-1)
2. C4m3127-4th-NNS6-17 (GGCRHPVLPIVSLHFCPG; C4m3127-4th-NNS6-17) [Clone C4m3127-4th-NNS6-17]
3. C4m3127-4th-NNS6-64 (GGCLHPYLPIVSSHFCPF; C4m3127-4th-NNS6-64) [Clone C4m3127-4th-NNS6-64]
4. C4m#19-5th2w-NNS6-14 (GGCWHPFLPIRSYHFCPW; C4m#19-5th2w-NNS6-14)
5. C4m3127-4th-NNS6-89 (GGCWHPFLPIFSAHFCMR; C4m3127-4th-NNS6-89) [Clone C4m3127-4th-NNS6-89]
6. C4m#19-5th4w-NN6-91 (GGCMHPYLRIISPHFCRG; C4m#19-5th4w-NN6-91)
7. C4m#19-5th4w-NN6-67 (GGCLHPFLPIRSVHFCPR; C4m#19-5th4w-NN6-67)

Key:
14.7
20.4
12.9
34.7
6.6
30.0
45.4

###

# assayed.system: CTLA-4 (Homo sapiens, UniProt P16410)
# Sequence (P16410 36-223): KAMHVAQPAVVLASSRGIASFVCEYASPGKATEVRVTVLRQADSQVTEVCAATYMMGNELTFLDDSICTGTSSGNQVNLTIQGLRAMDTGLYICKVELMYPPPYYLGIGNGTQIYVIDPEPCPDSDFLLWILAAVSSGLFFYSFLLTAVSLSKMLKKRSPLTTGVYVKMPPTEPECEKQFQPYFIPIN
# protocol.summary: ELISA binding of clones after Affinity Maturation with random library (Tables 10, 11)
# test.parameters: CTLA-4 binding ELISA of clones after Affinity Maturation from random (NNS) library; signal/noise ratio; clones of 4th or 5th round
Please provide measured ELISA S/N(SA) for the entries that follow.
Numbers only.

Known ELISA S/N(SA) results, listed for orientation:
# substance, ELISA S/N(SA)
data = [
    ("C4m#19-5th4w-NN6-94 (GGCLHPFLPIYSLHFCPC; C4m#19-5th4w-NN6-94)", 5.0),
    ("C4m#19-5th4w-NN6-69-1 (GGCSHPFLPILSVHFCPF; C4m#19-5th4w-NN6-69-1)", 24.9),
    ("C4m#19-5th4w-NN6-56 (GGCWHPFLPIQSLHFCGV; C4m#19-5th4w-NN6-56)", 27.1),
    ("C4m3127-4th-NNS6-26 (GGCAHPALPIWSCHFCPF; C4m3127-4th-NNS6-26) [Clone C4m3127-4th-NNS6-26]", 7.1),
    ("C4m#19-5th4w-NN6-57 (GGCMHPYLPIVSVHFCPC; C4m#19-5th4w-NN6-57)", 27.7),
    ("C4m#19-5th4w-NN6-82 (GGCFHPFLPIRSLHFCCR; C4m#19-5th4w-NN6-82)", 28.3),
    ("C4m3127-4th-NNS6-90 (GGCKHPVLPIVSLHFCPW; C4m3127-4th-NNS6-90) [Clone C4m3127-4th-NNS6-90]", 22.9),
]

Alright, here's another substance for you.
Exercise: Sample C4m#19-5th2w-NNS6-22 (GGCMHPFLPIQSVHFCSR; C4m#19-5th2w-NNS6-22) — what was its ELISA S/N(SA)?
Key: 29.3
